- testTarget: purine nucleoside phosphorylase (PNP) (Rattus norvegicus, UniProt P85973)
- Construct: Rat Erythrocytes; from tissue; host or cells: rat erythrocytes
- Sequence (P85973 whole entry): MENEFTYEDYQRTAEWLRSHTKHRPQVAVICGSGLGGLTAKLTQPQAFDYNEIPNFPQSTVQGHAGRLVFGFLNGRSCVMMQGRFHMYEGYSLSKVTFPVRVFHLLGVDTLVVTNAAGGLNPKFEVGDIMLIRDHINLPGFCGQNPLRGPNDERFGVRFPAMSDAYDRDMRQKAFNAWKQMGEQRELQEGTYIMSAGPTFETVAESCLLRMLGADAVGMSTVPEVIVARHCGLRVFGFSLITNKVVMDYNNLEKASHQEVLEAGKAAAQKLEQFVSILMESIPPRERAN
- assayProcedure: PNP inhibition, coupled xanthine oxidase method of Kalckar (rat erythrocyte PNP)
- Assay type: biochemical
Decision: Ki beneath 200 nM gives Condition met; Ki meeting or exceeding 200 nM gives Condition not met.

- givenSmiles: "Nc1nc2c(ncn2CCCCCCC(F)(F)P(=O)(O)O)c(=O)[nH]1"
  testTarget: "purine nucleoside phosphorylase (PNP) (Rattus norvegicus, UniProt P85973)"
  classLabel: "Condition met"

Query: Please indicate whether the reported Ki of Nc1nc2c(ncn2CCCCCC(F)(F)P(=O)(O)O)c(=O)[nH]1 is strictly below 200 nM.
Reply: Condition met

Query: Check if Ki falls below 200 nM for Nc1nc2c(ncn2CCCCCCCC(F)(F)P(=O)(O)O)c(=O)[nH]1 .
Reply: Condition met

Query: # check: Ki < 200 nM for O=c1[nH]cnc2c1ncn2CCCCCCC(F)(F)P(=O)(O)O
Reply: Condition met

Query: I'd appreciate it if you could check whether Nc1nc2c(ncn2CCCCC(F)(F)P(=O)(O)O)c(=O)[nH]1 has Ki smaller than 200 nM.
Reply: Condition met

Query: Please indicate whether the reported Ki of CCOP(=O)(O)C(F)(F)CCCCCCn1cnc2c(=O)[nH]c(N)nc21 is strictly below 200 nM.
Reply: Condition not met

* * *

Quick list: pKi per entry.
- testTarget: purine nucleoside phosphorylase (PNP) (Homo sapiens)
- Construct: Human Erythrocytes; from tissue; host or cells: human erythrocytes
- Sequence (P00491 whole entry): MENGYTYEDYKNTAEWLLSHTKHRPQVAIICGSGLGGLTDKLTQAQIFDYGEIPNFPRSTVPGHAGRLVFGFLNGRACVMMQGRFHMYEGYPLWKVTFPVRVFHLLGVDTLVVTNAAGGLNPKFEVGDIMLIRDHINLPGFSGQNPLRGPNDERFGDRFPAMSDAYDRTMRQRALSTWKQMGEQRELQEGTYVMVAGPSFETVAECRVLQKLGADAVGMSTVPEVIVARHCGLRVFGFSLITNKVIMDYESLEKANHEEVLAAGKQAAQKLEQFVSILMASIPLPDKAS
- assayProcedure: PNP inhibition, coupled xanthine oxidase method of Kalckar (human erythrocyte PNP)
- Assay type: biochemical
pKi (log units): -log10 of the concentration in mol/L.

Query: If you can, please state the reported pKi value of Nc1nc2c(ncn2CCCCCCCC(F)(F)P(=O)(O)O)c(=O)[nH]1 [9-(8-phosphono-8,8-difluorooctyl)guanine] .
Reply: 6.72

Query: Quick one: pKi for Nc1nc(O)c2ncn(CCCCCCCP(=O)(O)O)c2n1 [9-(7-phosphono-heptyl)guanine] ?
Reply: 6.17

Query: Would you kindly share the measured pKi for O=c1[nH]cnc2c1ncn2CCCCCCC(F)(F)P(=O)(O)O ?
Reply: 7.00

Query: Need pKi of Nc1nc2c(ncn2CCCCCC(F)(F)P(=O)(O)O)c(=O)[nH]1 [9-(6-phosphono-6,6-difluorohexyl)guanine] , thanks.
Reply: 6.55

Query: Which pKi value belongs to Nc1nc2c(ncn2CCCCCCC(F)(F)P(=O)(O)O)c(=O)[nH]1 ?
Reply: 7.10

* * *

- testTarget: purine nucleoside phosphorylase (PNP) (Rattus norvegicus, UniProt P85973)
- Construct: Rat Erythrocytes; from tissue; host or cells: rat erythrocytes
- assayProcedure: PNP inhibition, coupled xanthine oxidase method of Kalckar (rat erythrocyte PNP)
- Format: biochemical
- assayConditions: apparent dissociation constant; 1 mM inorganic phosphate, 0.1 M HEPES buffer (pH 7.4), inosine 0.05 mM to 0.15 mM as substrate; read-out: Ki (M) PNP SOURCE Rat Erythrocytes
measurementLabel: Ki (M)
Write the number in M without appending the unit.

Query: Which Ki value belongs to Nc1nc(O)c2ncn(CCCCCCCP(=O)(O)O)c2n1 ?
Reply: 7.5e-08

* * *

- testTarget: purine nucleoside phosphorylase (PNP) (Bos taurus, UniProt P55859)
- Construct: Calf Spleen; from tissue; host or cells: calf spleen
- Sequence (P55859 whole entry): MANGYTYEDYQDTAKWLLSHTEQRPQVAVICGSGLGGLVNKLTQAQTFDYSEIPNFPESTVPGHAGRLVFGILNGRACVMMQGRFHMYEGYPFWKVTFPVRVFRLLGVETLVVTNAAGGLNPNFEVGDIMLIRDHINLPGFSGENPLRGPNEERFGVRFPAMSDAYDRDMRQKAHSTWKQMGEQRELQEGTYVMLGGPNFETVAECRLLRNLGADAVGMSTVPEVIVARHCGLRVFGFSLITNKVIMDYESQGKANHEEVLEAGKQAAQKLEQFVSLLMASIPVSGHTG
- assayProcedure: PNP inhibition, coupled xanthine oxidase method of Kalckar (calf spleen PNP)
- Assay type: biochemical
- assayConditions: apparent dissociation constant; 1 mM inorganic phosphate, 0.1 M HEPES buffer (pH 7.4), inosine 0.05 mM to 0.15 mM as substrate; read-out: Ki (M) PNP SOURCE Calf Spleen
measurementLabel: Ki
Answer format: value, then unit.

Query: Could you tell me which Ki is on file for CCOP(=O)(O)C(F)(F)CCCCCCn1cnc2c(=O)[nH]c(N)nc21 ?
Reply: 3.3e-06 M
